Target: T1, recombinant CD40 (human, UniProt P25942 21-193, limits assumed)
T1 construct: the ELISA method itself names no species or construct; also called antigen CD40
T1 sequence (P25942 21-193 limits assumed): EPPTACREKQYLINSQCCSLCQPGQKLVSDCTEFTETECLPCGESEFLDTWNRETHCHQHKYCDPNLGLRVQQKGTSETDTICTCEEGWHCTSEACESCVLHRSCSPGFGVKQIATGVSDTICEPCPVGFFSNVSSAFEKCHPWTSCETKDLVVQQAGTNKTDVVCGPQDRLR
Test: ELISA, plates coated with recombinant CD40, AP-conjugated anti-human kappa detection; effective concentration in supernatant read on a PG102 reference curve
Each item that follows carries a reported CD40 binding.

- Binder: "PG102_Var12 (antibody, human IgG4 S228P, kappa, V domains shown, IgG4pro(deltaK)/kappa; also called FFP104_Var12) VH: QVQLVESGGGLVKPGGSLRLSCAVSGFSLSRYSVYWIRQAPGKGLEWMGMMWGGGSTDYSTSVKGRFTISKDNAKTSVYLQMSSLRAEDTAVYYCVRTDGDYWGQGTLVTVSS VL: ELQLTQSPLSLPVTLGQPASISCRSSQSLADSQGNTYLHWYLQRPGQSPRLLIYKVSNRFSGVPDRFSGSGSGTDFTLKISRVEAEDVGVYYCSQSTHVPWTFGGGTKLEIKR"
  CD40 binding (mg/L): 2.35
- Binder: "PG102_Var4 (antibody, human IgG4 S228P, kappa, V domains shown, IgG4pro(deltaK)/kappa; also called FFP104_Var4) VH: QVQLVESGGGLVKPGGSLRLSCAVSGFSLSRYSVYWIRQAPGKGLEWMGMMWGGGSTDYSTSVKGRFTISKDNAKTSVYLQMSSLRAEDTAVYYCVRTDGDYWGQGTLVTVSS VL: ELQLTQSPLSLPVTLGQPASISCRSSQSLASSSGNTYLHWYLQRPGQSPRLLIYKVSNRFSGVPDRFSGSGSGTDFTLKISRVEAEDVGVYYCSQSTHVPWTFGGGTKLEIKR"
  CD40 binding (mg/L): 29.5
- Binder: "PG102_Var6 (antibody, human IgG4 S228P, kappa, V domains shown, IgG4pro(deltaK)/kappa; also called FFP104_Var6) VH: QVQLQESGPGLVKPSETLSITCTVSGFSLSRYSVYWVRQPPGKGLEWMGMMWGGGSTDYSTSLKSRLTISKDTSKSQVSLKMSSLTAADTAVYYCVRTDGDYWGQGTLVTVSS VL: ELQLTQSPLSLPVTLGQPASISCRSSQSLASSQGNTYLHWYLQRPGQSPRLLIYKVSNRFSGVPDRFSGSGSGTDFTLKISRVEAEDVGVYYCSQSTHVPWTFGGGTKLEIKR"
  CD40 binding (mg/L): 39.7
- Binder: "PG102_Var5 (antibody, human IgG4 S228P, kappa, V domains shown, IgG4pro(deltaK)/kappa; also called FFP104_Var5) VH: QVQLQESGPGLVKPSETLSITCTVSGFSLSRYSVYWIRQPPGKGPEWMGMMWGGGSTDYSTSLKSRLTISKDTSKSQVSLKMSSLTAADTAVYYCVRTDGDYWGQGTLVTVSS VL: ELQLTQSPLSLPVTLGQPASISCRSSQSLASSQGNTYLHWYLQRPGQSPRLLIYKVSNRFSGVPDRFSGSGSGTDFTLKISRVEAEDVGVYYCSQSTHVPWTFGGGTKLEIKR"
  CD40 binding (mg/L): 34.9
- Binder: "PG102_Var7 (antibody, human IgG4 S228P, kappa, V domains shown, IgG4pro(deltaK)/kappa; also called FFP104_Var7) VH: QVQLQESGPGLVKPSQTLSLTCTVSGFSLSRYSVYWVRQPPGKGLEWIGMMWGGGSTDYNPSLKSRLTISKDTSKSQVSLKLSSLTAADTAVYYCVRTDGDYWGQGTLVTVSS VL: ELQLTQSPLSLPVTLGQPASISCRSSQSLASSQGNTYLHWYLQRPGQSPRLLIYKVSNRFSGVPDRFSGSGSGTDFTLKISRVEAEDVGVYYCSQSTHVPWTFGGGTKLEIKR"
  CD40 binding (mg/L): 33.6
- Binder: "PG102_Var8 (antibody, human IgG4 S228P, kappa, V domains shown, IgG4pro(deltaK)/kappa; also called FFP104_Var8) VH: QVQLVESGGGLVKPGGSLRLSCAVSGFSLSRYSVYWIRQAPGKGLEWMGMMWGGGSTDYSTSVKGRFTISKDNAKTSVYLQMSSLRAEDTAVYYCVRTDGDYWGQGTLVTVSS VL: ELQLTQSPLSLPVTLGQPASISCRSSQSLASSQGNTYLHWYLQRPGQSPRLLIYKVSNRFSGVPDRFSGSGSGTDFTLKISRVEAEDVGVYYCSQSTHVPWTFGGGTKLEIKR"
  CD40 binding (mg/L): 23.5
- Binder: "PG102_Var16 (antibody, human IgG4 S228P, kappa, V domains shown, IgG4pro(deltaK)/kappa; also called FFP104_Var16) VH: QVQLVESGGGLVKPGGSLRLSCAVSGFSLSRYSVYWIRQAPGKGLEWMGMMWGGGSTDYSTSVKGRFTISKDNAKTSVYLQMSSLRAEDTAVYYCVRTDGDYWGQGTLVTVSS VL: DIVMTQSPLSLPVTPGQPASISCRSSQSLASSQGNTYLHWYLQKPGQSPRLLIYKVSNRFSGVPDRFSGSGSGTDFTLKISRVEAEDVGVYYCSQSTHVPWTFGGGTKLEIKR"
  CD40 binding (mg/L): 20.7
- Binder: "PG102_Var10 (antibody, human IgG4 S228P, kappa, V domains shown, IgG4pro(deltaK)/kappa; also called FFP104_Var10) VH: QVQLQESGPGLVKPSETLSITCTVSGFSLSRYSVYWVRQPPGKGLEWMGMMWGGGSTDYSTSLKSRLTISKDTSKSQVSLKMSSLTAADTAVYYCVRTDGDYWGQGTLVTVSS VL: ELQLTQSPLSLPVTLGQPASISCRSSQSLADSQGNTYLHWYLQRPGQSPRLLIYKVSNRFSGVPDRFSGSGSGTDFTLKISRVEAEDVGVYYCSQSTHVPWTFGGGTKLEIKR"
  CD40 binding (mg/L): 4.35
- Binder: "PG102_Var14 (antibody, human IgG4 S228P, kappa, V domains shown, IgG4pro(deltaK)/kappa; also called FFP104_Var14) VH: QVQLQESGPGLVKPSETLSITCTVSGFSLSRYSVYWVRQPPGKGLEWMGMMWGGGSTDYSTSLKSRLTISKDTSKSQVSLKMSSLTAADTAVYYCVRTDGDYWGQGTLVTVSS VL: DIVMTQSPLSLPVTPGQPASISCRSSQSLASSQGNTYLHWYLQKPGQSPRLLIYKVSNRFSGVPDRFSGSGSGTDFTLKISRVEAEDVGVYYCSQSTHVPWTFGGGTKLEIKR"
  CD40 binding (mg/L): 23
- Binder: "PG102_Var1 (antibody, human IgG4 S228P, kappa, V domains shown, IgG4pro(deltaK)/kappa; also called FFP104_Var1) VH: QVQLQESGPGLVKPSETLSITCTVSGFSLSRYSVYWIRQPPGKGPEWMGMMWGGGSTDYSTSLKSRLTISKDTSKSQVSLKMSSLTAADTAVYYCVRTDGDYWGQGTLVTVSS VL: ELQLTQSPLSLPVTLGQPASISCRSSQSLASSSGNTYLHWYLQRPGQSPRLLIYKVSNRFSGVPDRFSGSGSGTDFTLKISRVEAEDVGVYYCSQSTHVPWTFGGGTKLEIKR"
  CD40 binding (mg/L): 34.9
